Recorded Acetone Headspace Concentration values for a group of compounds are listed next.
- PROTOCOL NOTES: Nucleophilic reagents: aldehyde content in vinyl acetate-acrylic latex
- STATED CONDITIONS: Rovace 9900 pre-treated 1 week with 50 ppm N51032; reagent 50 ppm, 55° C. 2 hours, then 1 week RT

>  <COMPOUND>
O=C1CC(=O)NC(=O)N1

>  <Acetone Headspace Concentration, ppm>
287

$$$$
>  <COMPOUND>
NCCNCCNCCN

>  <Acetone Headspace Concentration, ppm>
262

$$$$
>  <COMPOUND>
Nc1ccc(CO)cc1

>  <Acetone Headspace Concentration, ppm>
245

$$$$
>  <COMPOUND>
NNc1ccc(C(=O)O)cc1 [4HB, 4-hydrazino benzoic acid]

>  <Acetone Headspace Concentration, ppm>
247

$$$$
>  <COMPOUND>
Nc1ccc(N)cc1

>  <Acetone Headspace Concentration, ppm>
279

$$$$

----------
Recorded l-butanol Headspace Concentration values for a group of compounds are listed next.
- PROTOCOL NOTES: Nucleophilic reagents: aldehyde content in vinyl acetate-acrylic latex
- STATED CONDITIONS: Rovace 9900 pre-treated 1 week with 50 ppm N51032; reagent 50 ppm, 55° C. 2 hours, then 1 week RT
EXPERIMENTAL READOUT: l-butanol Headspace Concentration (ppm)

>  <COMPOUND>
NCCNCCNCCN [TET, triethylene tetramine]

>  <MEASUREMENT>
64

$$$$
>  <COMPOUND>
O=C1CC(=O)NC(=O)N1 [B, barbituric acid]

>  <MEASUREMENT>
53

$$$$
>  <COMPOUND>
Nc1ccc(CO)cc1 [4ABA, 4-aminobenzyl alcohol]

>  <MEASUREMENT>
48

$$$$
>  <COMPOUND>
Nc1ccc(N)cc1 [PPD, p-phenylene diamine]

>  <MEASUREMENT>
58

$$$$
>  <COMPOUND>
NNc1ccc(C(=O)O)cc1 [4HB, 4-hydrazino benzoic acid]

>  <MEASUREMENT>
48

$$$$

----------
- TARGET DESC: CALBL (Moesziomyces antarcticus)
- Construct: purchased Novozymes, Bagsvaerd, Denmark Novozym CALB L
- Sequence (P41365 26-342): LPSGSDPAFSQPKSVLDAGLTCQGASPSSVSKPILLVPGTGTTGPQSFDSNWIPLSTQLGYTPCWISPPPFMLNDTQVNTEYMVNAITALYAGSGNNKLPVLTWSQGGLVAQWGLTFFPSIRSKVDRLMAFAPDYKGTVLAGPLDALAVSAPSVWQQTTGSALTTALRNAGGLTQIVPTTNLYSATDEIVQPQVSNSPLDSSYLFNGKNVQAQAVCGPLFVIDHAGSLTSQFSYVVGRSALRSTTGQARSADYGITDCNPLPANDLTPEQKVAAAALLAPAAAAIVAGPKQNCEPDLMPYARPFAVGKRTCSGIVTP
- PROTOCOL NOTES: Small molecule inhibitors: EA content of latex containing CALBL
- Assay type: biochemical
- STATED CONDITIONS: AC-261 latex, CALBL 60 ppm, inhibitor 1.0% added simultaneously (Control: none), 72 hr
# cutoff 60 ppm applies to EA content; >= gives criterion met, < gives criterion not met

>  <MOLECULE>
CCCCCCCCCCS(=O)(=O)[O-].[Na+] [S-1-DS, Sodium 1-decane-sulfonate]

>  <ASSIGNED CATEGORY>
criterion not met

$$$$
>  <MOLECULE>
OB(O)C1CCCCC1

>  <ASSIGNED CATEGORY>
criterion not met

$$$$
>  <MOLECULE>
OB(O)c1ccccc1

>  <ASSIGNED CATEGORY>
criterion met

$$$$
>  <MOLECULE>
CC(C)CB(O)O

>  <ASSIGNED CATEGORY>
criterion met

$$$$
>  <MOLECULE>
CC(C)(C)CB(O)O

>  <ASSIGNED CATEGORY>
criterion not met

$$$$
